System: HCT-15 colon
protocol: NCI tumour cell line growth inhibition, 48 h
Reported TGI values follow for various compounds

compound: O=C1C2C(C(=O)N1c1ccccc1)C1(c3ccccc3)CCC2(C(=O)c2ccccc2)O1 (centres undefined)
measured-target: HCT-15 colon
value-observed: > 10 µM
//
compound: CC1CC(N)=C(C#N)C1(C#N)C#N (centres undefined)
measured-target: HCT-15 colon
value-observed: > 100 µM
//
compound: C=CCOC(=O)CC[C@H](NC(=O)[C@@H](CCC(F)(F)F)Cc1ccc(O)cc1)C(=O)OCC=C
measured-target: HCT-15 colon
value-observed: > 100 µM

In the following, a different compound is considered.
Reported TGI, compound N#Cc1ccc(C(O)C(F)(F)c2nc3ccccc3o2)cc1 (centres undefined) : ____
> 100 µM
